Reference for the values: patent US9540325B2

test system: MCF7 cells (breast cancer stem cell, mammosphere); experiment: Measurement of effect of inhibiting mammosphere formation; format: cell-based, human; conditions: 0.1 μM, MCF7, 8 days
Structures can show the parent of a compound that is named as a salt.
Would you kindly list MFE (%) (mammosphere-forming efficiency) for each of these compounds?
Give me the value, and tack the unit on after it.

Asked: Enter reported MFE (%) (mammosphere-forming efficiency) observed with MCF7 cells (breast cancer stem cell, mammosphere) for Cl.N=C(NC(=N)N1CCCCCC1)Nc1cccc(Cl)c1 [Example 21]
Given back: 5.8%

Asked: Form: Entry = [H]/N=C(/N)N/C(=N/[H])NCCc1ccccc1 [Phenformin hydrochloride, reference compound] | System = MCF7 cells (breast cancer stem cell, mammosphere) | MFE (%) (mammosphere-forming efficiency) = ____
Given back: 4.2%

Asked: Request: MFE (%) (mammosphere-forming efficiency), test system MCF7 cells (breast cancer stem cell, mammosphere), entry Cl.N=C(NC(=N)N1CCCCC1)Nc1cccc(Cl)c1 [Example 20]
Given back: 3.6%

Asked: Under MCF7 cells (breast cancer stem cell, mammosphere): MFE (%) (mammosphere-forming efficiency) value of Cl.N=C(NC(=N)N1CCCC1)Nc1ccc(C(F)(F)F)cc1 [Example 26] ?
Given back: 5.3%

Asked: Under MCF7 cells (breast cancer stem cell, mammosphere): MFE (%) (mammosphere-forming efficiency) value of Cl.N=C(NC(=N)N1CCCCC1)Nc1ccc(C(F)(F)F)cc1 [Example 27] ?
Given back: 5.2%

###

tested on: MCF7 cells (breast cancer stem cell, mammosphere); test: Measurement of effect of inhibiting mammosphere formation; assay type: cell-based, human; conditions: 10 μM, MCF7, 8 days, size 50 um or more
Structures can show the parent of a compound that is named as a salt.
quantity-name: Number of Mammospheres
// no unit string in output, number only

Asked: Given the entry Cl.N=C(NC(=N)N1CCCC1)Nc1ccc(C(F)(F)F)cc1 [Example 26] , report its measured Number of Mammospheres.
Given back: 72

Asked: Number of Mammospheres lookup needed for Cl.N=C(NC(=N)N1CCCCCC1)Nc1cccc(Cl)c1 [Example 21] , thanks.
Given back: 46

Asked: Query: Number of Mammospheres; subject: Cl.N=C(NC(=N)N1CCCCC1)Nc1cccc(Cl)c1 [Example 20]
Given back: 29

Asked: State the recorded Number of Mammospheres for this entry: [H]/N=C(/N)N/C(=N/[H])NCCc1ccccc1 [Phenformin hydrochloride, reference compound]
Given back: 116

Asked: Would you kindly share the measured Number of Mammospheres for Cl.N=C(NC(=N)N1CCCCC1)Nc1ccc(C(F)(F)F)cc1 [Example 27] ?
Given back: 32

###

system: MCF7 cells (breast cancer stem cell, mammosphere); assay: Measurement of effect of inhibiting mammosphere formation; assay type: cell-based, human; conditions: 5 μM, MCF7, 8 days
Where a name gives a salt, the structure may show the parent alone.
So I've got a bunch of compounds here, and I need their MFE (%) (mammosphere-forming efficiency) values.
Report as a plain number; the unit % is understood.

Asked: Param readout= MFE (%) (mammosphere-forming efficiency); system= MCF7 cells (breast cancer stem cell, mammosphere); entry= Cl.N=C(NC(=N)N1CCCCC1)Nc1cccc(Cl)c1 [Example 20] ; returns value.
Given back: 3.8

Asked: What measured MFE (%) (mammosphere-forming efficiency) is associated with Cl.N=C(NC(=N)N1CCCC1)Nc1ccc(C(F)(F)F)cc1 [Example 26] on MCF7 cells (breast cancer stem cell, mammosphere)?
Given back: 6.0

Asked: Missing value: MFE (%) (mammosphere-forming efficiency), MCF7 cells (breast cancer stem cell, mammosphere), entry [H]/N=C(/N)N/C(=N/[H])NCCc1ccccc1 [Phenformin hydrochloride, reference compound] . Fill in?
Given back: 5.2

Asked: Form: Entry = Cl.N=C(NC(=N)N1CCCCCC1)Nc1cccc(Cl)c1 [Example 21] | System = MCF7 cells (breast cancer stem cell, mammosphere) | MFE (%) (mammosphere-forming efficiency) = ____
Given back: 3.6

Asked: For MCF7 cells (breast cancer stem cell, mammosphere), provide MFE (%) (mammosphere-forming efficiency) of Cl.N=C(NC(=N)N1CCCCC1)Nc1ccc(C(F)(F)F)cc1 [Example 27] please.
Given back: 3.0

###

test system: HCT116 cells; test: Measurement of effect of inhibiting cancer cell proliferation (MTT); format: cell-based, human; conditions: Homo sapiens, HCT-116, 100 μM, 48 hours, read-out: Cell Growth Inhibition (%) at 100 μM
quantity-name: inhibition at 100 µM (%)
A number alone suffices; assume %.

Asked: Would you kindly share the measured inhibition at 100 µM for CN1CCN(C(=N)NC(=N)Nc2ccc(OC(F)(F)F)cc2)CC1.Cl [Example 35, hydrochloride] ?
Given back: 76.5

Asked: Would you mind telling me what inhibition at 100 µM value was observed for Cl.N=C(NC(=N)N1CCCCC1)Nc1c(F)cc(F)cc1F [Example 69, hydrochloride] ?
Given back: 21.5

Asked: Entry Cl.N=C(NC(=N)N1CCCCC1)Nc1ccccc1 [Example 8, hydrochloride] has what inhibition at 100 µM?
Given back: 77.6

Asked: Request the reported inhibition at 100 µM associated with Cc1cccc(NC(=N)NC(=N)N2CCCCC2)c1.Cl [Example 9, hydrochloride]
Given back: 79.1

Asked: # query: inhibition at 100 µM of entry Cl.N=C(NC(=N)N1CCCCC1)Nc1cc(Cl)cc(OC(F)(F)F)c1 [Example 65, hydrochloride]
Given back: 97.3

Asked: Which value of inhibition at 100 µM has been reported for Cl.N=C(NC(=N)N1CCOCC1)Nc1cccc(Br)c1 [Example 22, hydrochloride] in the records?
Given back: 44.5

Asked: // lookup inhibition at 100 µM for Cl.N=C(NC(=N)N1CCCCC1)Nc1cc(F)c(F)c(F)c1 [Example 68, hydrochloride]
Given back: 97.6

Asked: Which inhibition at 100 µM reading was recorded for the compound Cl.N=C(NC(=N)N1CCCC1)Nc1cc(Br)cc(OC(F)(F)F)c1 [Example 66, hydrochloride] ?
Given back: 97.6

###

For each of the molecules below, state its Number of Mammospheres.
test system: MCF7 cells (breast cancer stem cell, mammosphere); test: Measurement of effect of inhibiting mammosphere formation; assay type: cell-based, human; details: 1 μM, MCF7, 8 days, size 50 um or more
Counter-ions that a name gives are not always drawn.

Asked: What does the record list as Number of Mammospheres for Cl.N=C(NC(=N)N1CCCCC1)Nc1ccc(C(F)(F)F)cc1 ?
Given back: 105 ± 16.3

Asked: Number of Mammospheres for Cl.N=C(NC(=N)N1CCCCC1)Nc1cccc(Cl)c1 ?
Given back: 103

Asked: Which Number of Mammospheres is listed for [H]/N=C(/N)N/C(=N/[H])NCCc1ccccc1 [Phenformin hydrochloride, reference compound] ?
Given back: 79 ± 0.7

Asked: Name the reported Number of Mammospheres value associated with the molecule Cl.N=C(NC(=N)N1CCCC1)Nc1ccc(C(F)(F)F)cc1
Given back: 112

Asked: So what's the measured Number of Mammospheres for this one? Cl.N=C(NC(=N)N1CCCCCC1)Nc1cccc(Cl)c1
Given back: 105

###

tested on: HCT116 cells; experiment: Measurement of effect of inhibiting cancer cell proliferation (MTT); assay type: cell-based, human; conditions: Homo sapiens, HCT-116, 100 μM, 48 hours, read-out: Cell Growth Inhibition (%) at 100 μM
Consider the following molecules; for each one, report its inhibition at 100 µM.
Please state the figure in %; there is no need to write the unit.

Asked: For the molecule Cl.N=C(NC(=N)N1CCCC1)Nc1cccc(OC(F)(F)F)c1 [Example 28, hydrochloride] , what inhibition at 100 µM is on record?
Given back: 97.6

Asked: What value of measured inhibition at 100 µM is listed for CC(=O)Nc1ccc(NC(=N)NC(=N)N2CCCCC2)cc1.Cl [Example 38, hydrochloride] ?
Given back: 0

Asked: What value of inhibition at 100 µM has been recorded for this entry: Cl.N=C(NC(=N)N1CCCCC1)Nc1ccc(Cl)cc1Cl [Example 62, hydrochloride]
Given back: 97.2

Asked: Look at this molecule and give its reported inhibition at 100 µM. Cl.N=C(NC(=N)N1CCCC1)Nc1cccc(C(F)(F)F)c1 [Example 23, hydrochloride]
Given back: 97.6

###

test system: HCT116 cells; test: Measurement of effect of inhibiting cancer cell proliferation (MTT); type: cell-based, human; conditions: Homo sapiens, HCT-116, 48 h
quantity-name: GI50

Asked: Give HCT116 cells GI50 for Cc1cccc(NC(=N)NC(=N)N2CCCCC2)c1.Cl [Example 9, hydrochloride]
Given back: 13.4 µM

Asked: Provide the documented GI50 with HCT116 cells as the system for Cl.N=C(NC(=N)N1CCCCC1)Nc1cccc(C(F)(F)F)c1 [Example 24, hydrochloride]
Given back: 6.9 µM

Asked: // lookup GI50 | system=HCT116 cells | key= Cl.N=C(NC(=N)N1CCCCC1)Nc1ccccc1F [Example 15, hydrochloride]
Given back: > 100 µM

Asked: Return GI50 measured with HCT116 cells given this compound: CN(C)c1ccc(NC(=N)NC(=N)N2CCCCC2)cc1.Cl [Example 37, hydrochloride]
Given back: > 100 µM
